Data credit: patent US6342508B1

# reported TACE % inhibition at 1 mM; entries follow
- target-system: TACE (Homo sapiens)
- Construct: purchased Immunex
- Sequence (P78536 215-824): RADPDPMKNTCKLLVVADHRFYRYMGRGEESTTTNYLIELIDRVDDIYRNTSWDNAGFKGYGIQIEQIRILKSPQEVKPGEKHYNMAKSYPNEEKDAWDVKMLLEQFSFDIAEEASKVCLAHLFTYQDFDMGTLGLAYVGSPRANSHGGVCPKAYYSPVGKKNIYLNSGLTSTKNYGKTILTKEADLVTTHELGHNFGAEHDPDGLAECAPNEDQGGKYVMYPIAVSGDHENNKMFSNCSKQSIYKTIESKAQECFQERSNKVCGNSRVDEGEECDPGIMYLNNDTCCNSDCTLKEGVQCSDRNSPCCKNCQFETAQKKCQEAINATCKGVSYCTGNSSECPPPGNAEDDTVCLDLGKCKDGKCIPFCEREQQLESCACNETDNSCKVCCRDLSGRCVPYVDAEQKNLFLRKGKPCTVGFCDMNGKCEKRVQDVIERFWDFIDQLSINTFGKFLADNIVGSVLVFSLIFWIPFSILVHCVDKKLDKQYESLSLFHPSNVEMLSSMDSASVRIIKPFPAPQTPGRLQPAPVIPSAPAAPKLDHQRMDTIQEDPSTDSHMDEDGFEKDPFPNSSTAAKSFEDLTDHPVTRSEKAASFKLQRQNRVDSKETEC
- protocol-details: Procedure for Measuring TACE Inhibition (fluorescent peptidyl substrate)
- Assay type: biochemical
- condition-parameters: 1 mM

# compound, TACE % inhibition at 1 mM / %
data = [
    ("CCC(SCC(=O)OC)C(=O)NO (centres unmarked)", 7.8),
    ("CCCCCCC(Sc1ccc(OCCN2CCNCC2)cc1)C(=O)NO (centres unmarked)", 50.9),
    ("CCCCCCC(C(=O)NO)[S+]([O-])c1ccc(NS(=O)(=O)c2c(C)nn(C)c2Cl)cc1 (centres unmarked)", 48.3),
    ("CC(C)CCSC(C)C(=O)NO (centres unmarked)", 33.7),
    ("COc1ccc(SC(C)C(=O)NO)cc1 (centres unmarked)", 40.4),
]

====

Where a name gives a salt, the structure may show the parent alone.
parameter-measured: melting point (°C)

# molecule, parameter-measured, readout-units, recorded-measurement
measured = [
    ("COc1ccc(S(=O)(=O)C(C)(Cc2cccc(OCCN3CCOCC3)c2)C(=O)NO)cc1 (stereo not shown)", "melting point", "°C", 63),
    ("COc1ccc(S(=O)(=O)C(C)(Cc2ccc(OCCN(C(C)C)C(C)C)cc2)C(=O)NO)cc1 (stereo not shown) (as salt: HCl)", "melting point", "°C", 98),
]

====

- target-system: TACE (Homo sapiens)
- Construct: purchased Immunex
- protocol-details: Procedure for Measuring TACE Inhibition (fluorescent peptidyl substrate)
- Type: biochemical
- condition-parameters: solid phase compounds table
- Procedure: Using 96-well black microtiter plates, each well recieves a solution composed of 10 μL TACE (Immunex, final concentration 1 μg/mL), 70 μL Tris buffer, pH 7.4 containing 10% glycerol (final concentration 10 mM), and 10 μL of test compound solution in DMSO (final concentration, DMSO concentration <1%) and incubated for 10 minutes at room temperature. […] The reaction is read (excitation 340 nm, emission 420 nm) for 10 min. and the increase in fluorescence over time is plotted as a linear line. […]

# compound, target-system, IC50 [nM]
records = [
    ("CCCCCCC(C(=O)NO)S(=O)(=O)c1ccc(OS(=O)(=O)c2ccccc2[N+](=O)[O-])cc1 (stereo not shown) [Example 238]", "TACE (Homo sapiens)", 930),
]

====

- target-system: MMP 9 (Homo sapiens)
- Construct: from tissue; host or cells: human neutrophils
- Sequence (P14780 94-707): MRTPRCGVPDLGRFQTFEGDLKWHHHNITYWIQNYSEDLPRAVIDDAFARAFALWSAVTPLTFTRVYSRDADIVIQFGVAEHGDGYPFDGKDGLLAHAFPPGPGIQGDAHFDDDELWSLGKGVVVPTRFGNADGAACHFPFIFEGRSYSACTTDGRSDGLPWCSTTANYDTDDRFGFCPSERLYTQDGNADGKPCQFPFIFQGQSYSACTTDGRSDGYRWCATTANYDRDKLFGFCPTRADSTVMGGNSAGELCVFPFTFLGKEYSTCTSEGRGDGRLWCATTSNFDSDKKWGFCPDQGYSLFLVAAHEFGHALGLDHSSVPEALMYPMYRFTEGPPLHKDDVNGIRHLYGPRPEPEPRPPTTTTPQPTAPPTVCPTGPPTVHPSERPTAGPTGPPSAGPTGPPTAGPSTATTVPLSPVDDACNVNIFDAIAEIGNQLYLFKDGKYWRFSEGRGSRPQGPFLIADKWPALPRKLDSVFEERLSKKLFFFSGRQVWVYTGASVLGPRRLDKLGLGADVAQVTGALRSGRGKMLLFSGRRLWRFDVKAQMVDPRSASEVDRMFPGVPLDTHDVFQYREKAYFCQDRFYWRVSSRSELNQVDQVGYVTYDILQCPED
- protocol-details: In Vitro Gelatinase Assay (human neutrophil gelatinase B, thiopeptide substrate/DTNB)
- Type: biochemical
- condition-parameters: read-out: MMP 9 IC 50
pIC50: −log10 of the molar value.

# molecule, pIC50
data = [
    ("COc1ccc(S(=O)(=O)C2(C(=O)NO)CCN(CC=C(C)C)CC2)cc1 [Example 89]", 7.41),
    ("COc1ccc(S(=O)(=O)C(C)(Cc2ccc(OCCN3CCCCC3)cc2)C(=O)NO)cc1 (stereo not shown) [Example 17]", 8.05),
    ("CCCCC[C@H](C(=O)NO)[S@+]([O-])c1ccc(OC)cc1 (relative stereo) [Example 81a]", 6.64),
    ("COc1ccc(S(=O)(=O)C(C)(CC=C(C)C)C(=O)NO)cc1 (stereo not shown) [Example 13]", 7.96),
]

====

- target-system: MMP 13 (Homo sapiens, UniProt P45452)
- protocol-details: MMP 13 inhibition (HTS)
- Format: biochemical
- condition-parameters: 36 nM

# compound, target-system, readout-units, MMP 13 % inhibition at 36 nM (HTS)
measured = [
    ("CCCCCCC(C(=O)NO)[S+]([O-])c1nc2ccccc2[nH]1 (centres unmarked) [Example 177]", "MMP 13 (Homo sapiens, UniProt P45452)", "%", 5),
    ("CCCCCCC(Sc1ccc(OCc2ccccc2)cc1)C(=O)NO (centres unmarked) [Example 199]", "MMP 13 (Homo sapiens, UniProt P45452)", "%", "−10"),
    ("CCCCCCC(C(=O)NO)[S+]([O-])c1ccc(NS(=O)(=O)c2c(C)nn(C)c2Cl)cc1 (centres unmarked) [Example 235]", "MMP 13 (Homo sapiens, UniProt P45452)", "%", 59),
    ("CCCCCCC(C(=O)NO)S(=O)(=O)CCc1cccc[n+]1[O-] (centres unmarked) [Example 183]", "MMP 13 (Homo sapiens, UniProt P45452)", "%", "−6"),
    ("CCCCCCC(C(=O)NO)S(=O)(=O)c1[nH]c2ccccc2[n+]1[O-] (centres unmarked) [Example 181]", "MMP 13 (Homo sapiens, UniProt P45452)", "%", 6),
]

====

Rule: melting point of 100 °C or more gives 1; anything lower gives -1.

# compound, label
measured = [
    ("COc1ccc(S(=O)(=O)C(C)(Cc2ccc3ncccc3c2)C(=O)NO)cc1 (stereo not drawn) [Example 67]", 1),
    ("CCCCCCC(Sc1nccn1C)C(=O)NO (stereo not drawn) [Example 39]", 1),
    ("CCCCC(Cc1ccc(OCCN(CC)CC)cc1)(C(=O)NO)S(=O)(=O)c1ccc(OC)cc1 (stereo not drawn) [Example 27]", -1),
    ("CCCCCCC(Cc1ccc(OCCN2CCCCCC2)cc1)(C(=O)NO)S(=O)(=O)c1ccc(OC)cc1 (stereo not drawn) [Example 36]", -1),
    ("COc1ccc(S(=O)(=O)C(C)(Cc2ccccc2)C(=O)NO)cc1 (stereo not drawn) [Example 12]", -1),
    ("COc1ccc(SC(C(=O)NO)C(C)C)cc1 (stereo not drawn) [Example 4]", 1),
]

====

- target-system: MMP 1 (Homo sapiens, UniProt P03956)
- Construct: human recombinant fibroblast collagenase (truncated mw=18,828, WAR, Radnor)
- Sequence (P03956 100-269 limits assumed): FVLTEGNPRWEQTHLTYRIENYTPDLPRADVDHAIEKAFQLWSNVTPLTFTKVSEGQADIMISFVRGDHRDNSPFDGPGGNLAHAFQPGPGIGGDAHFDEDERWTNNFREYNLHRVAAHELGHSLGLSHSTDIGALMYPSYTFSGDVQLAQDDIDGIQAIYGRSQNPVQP
- protocol-details: In Vitro Collagenase Assay (human recombinant fibroblast collagenase, fluorogenic peptide substrate)
- Assay type: biochemical
- condition-parameters: 1 micromolar
Parameter MMP 1 % inhibition at 1 micromolar: see the listing below.
parameter-measured: MMP 1 % inhibition at 1 micromolar (%)

# compound, target-system, readout-units, recorded-measurement
data = [
    ("Cc1occc1S(=O)(=O)C(C)(Cc1ccccc1)C(=O)NO (stereo not shown)", "MMP 1 (Homo sapiens, UniProt P03956)", "%", 66.1),
    ("CCCCCCCCS(=O)(=O)C(Cc1ccc(OCCN2CCCCC2)cc1)C(=O)NO (stereo not shown)", "MMP 1 (Homo sapiens, UniProt P03956)", "%", 78.9),
    ("CC(Cc1ccccc1)(C(=O)NO)S(=O)(=O)c1cccs1 (stereo not shown)", "MMP 1 (Homo sapiens, UniProt P03956)", "%", 99.1),
    ("CC(C(=O)O)S(=O)(=O)CCCCCCCCS(=O)(=O)C(C)C(=O)NO (stereo not shown)", "MMP 1 (Homo sapiens, UniProt P03956)", "%", 10.1),
    ("CC(Cc1ccc(OCCN2CCCCC2)cc1)(C(=O)NO)S(=O)(=O)c1cccs1 (stereo not shown)", "MMP 1 (Homo sapiens, UniProt P03956)", "%", 49),
    ("Cc1occc1S(=O)(=O)C(C)(Cc1ccc(OCCN2CCCCC2)cc1)C(=O)NO (stereo not shown)", "MMP 1 (Homo sapiens, UniProt P03956)", "%", 47.1),
    ("CCCCCCC(Sc1ccc(OC)cc1)C(=O)NO (stereo not shown)", "MMP 1 (Homo sapiens, UniProt P03956)", "%", 9),
]

====

Counter-ions that a name gives are not always drawn.

# compound, readout-units, melting point
records = [
    ("COc1ccc(S(=O)(=O)C(C)(Cc2ccc(OCCCN3CCN(c4cccc(Cl)c4)CC3)cc2)C(=O)NO)cc1 (centres unmarked) (as salt: HCl)", "°C", 122),
    ("COc1ccc(S(=O)(=O)C2(C(=O)NO)CCN(Cc3ccc(Br)cc3)CC2)cc1", "°C", 180),
    ("COc1ccc(SC(C(=O)NO)c2ccccc2)cc1 (centres unmarked)", "°C", 155),
    ("COc1ccc(S(=O)(=O)C2(C(=O)NO)CCN(Cc3cccc(OC)c3)CC2)cc1", "°C", 130),
    ("COc1ccc(S(=O)(=O)C2(C(=O)NO)CCN(C(C)C)CC2)cc1", "°C", 75),
    ("COc1ccc(S(=O)(=O)C(C(=O)NO)C(C)C)cc1 (centres unmarked)", "°C", 220),
]

====

- target-system: MMP 13 (Homo sapiens)
- protocol-details: MMP 13 inhibition (standard/manual test)
- Type: biochemical
- condition-parameters: manual; nM

# compound, IC50 (nM)
rows = [
    ("CC(=O)Nc1ccc(SC(Cc2ccccc2)C(=O)NO)cc1 (stereo not shown)", 255),
]
